The origin of these recorded values is the supplement of paper PMC11208160.

Experiment: recombinant barcode read abundance after kanamycin selection (control-corrected) (log10(CPM+1)); higher = more efficient recombination; sequences stand for … in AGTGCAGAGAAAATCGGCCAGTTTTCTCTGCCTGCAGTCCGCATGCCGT…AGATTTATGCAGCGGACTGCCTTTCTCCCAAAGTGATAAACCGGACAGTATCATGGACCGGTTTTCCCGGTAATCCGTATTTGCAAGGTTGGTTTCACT; site = the 11-nt target
Measured Endpoint: recombinant barcode read abundance (log10)

                               sequence_text  result
 0  CAGTAGTCTTGGGTTCTAACCTGTTGCCT (site CAGTAATCTAG)   0.579
 1  ACTAAGCCTTGGGTTCTAACCTGTTGCGG (site AGTAAGCCTCT)   0.151
 2  GTCGCCTCTTGGGTTCTAACCTGTTGCCT (site GTCACCTCTAG)   0.157
 3  TCTAAGACTTGGGTTCTAACCTGTTGCGC (site TCTAAGACTGC)    1.26
 4  AGTTACACTTGGGTTCTAACCTGTTGCCT (site AGTTGCACTAG)  0.0991
 5  AGCCTGCCTTGGGTTCTAACCTGTTGCCT (site AGCCTGTCTAG)  0.0826
 6  GTCCGCTCTTGGGTTCTAACCTGTTGCCT (site CTCCGCTCTAG)   0.823
 7  GCCCAATCTTGGGTTCTAACCTGTTGCCT (site GCCCAATCTAG)    1.05
 8  CGATGGCCTTGGGTTCTAACCTGTTGCAT (site CGATGACCTAT)   0.388
 9  GAGAGGTCTTGGGTTCTAACCTGTTGCGT (site GAGAGGTCTAC)     2.5
10  CGGAAGGCTTGGGTTCTAACCTGTTGCCT (site CGGAAGGCTAG)    0.89
11  CTGGTGCCTTGGGTTCTAACCTGTTGCCT (site CTGGTGCCTAG)    1.46
12  TGAGATGCTTGGGTTCTAACCTGTTGCCT (site TGATATGCTAG)   0.124
13  TGCGCGACTTGGGTTCTAACCTGTTGCCT (site TGCGCAACTAG)  0.0131
14  GTGTCAGCTTGGGTTCTAACCTGTTGCCT (site GTGTCATCTAG)    0.02
15  GAGTGGCCTTGGGTTCTAACCTGTTGCGG (site GAGTAGCCTCC)   0.831
16  CAGCACCCTTGGGTTCTAACCTGTTGCGG (site CAGCACCCTCC)   0.515
17  GCAATGACTTGGGTTCTAACCTGTTGCCT (site GAAATGACTAG)       0
18  TCCGAGACTTGGGTTCTAACCTGTTGCGT (site TTCGAAACTAC)   0.226
19  GAGCATACTTGGGTTCTAACCTGTTGCCT (site GAGGGTACTAG)  0.0325
20  ATTAACTCTTGGGTTCTAACCTGTTGCCT (site CGAGTGACTCT)  0.0163
21  CAAGTAGCTTGGGTTCTAACCTGTTGCCT (site CAAGTCGCTAG)   0.123
22  GAGTACTCTTGGGTTCTAACCTGTTGCTA (site GAGTACTCTTA)     1.8

---

Assay: recombinant UMI read abundance after kanamycin selection (control-corrected) (log10(CPM+1)); higher = more efficient recombination; extreme values may be limits of the assay; sequences stand for … in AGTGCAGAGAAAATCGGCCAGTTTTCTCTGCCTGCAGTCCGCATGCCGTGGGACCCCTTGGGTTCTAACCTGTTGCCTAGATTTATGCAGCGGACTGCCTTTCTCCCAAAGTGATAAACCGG…AGGTTGGTTTCACT; site = the 11-nt donor
Measured Endpoint: recombinant UMI read abundance (log10)

>>> df
                               sequence_text                       measured_endpoint  readout_number
 0  CGATCAACATGGACCGGTTTTCCCGGTAATCCGTATTTGTT (site CGATCGACTAA)  recombinant UMI read abundance (log10)         0.00905
 1  GACCTCACATGGACCGGTTTTCCCGGTAATCCGTATTTGAT (site GATCTCACTAT)  recombinant UMI read abundance (log10)         0.00913
 2  GTGGAAGCATGGACCGGTTTTCCCGGTAATCCGTATTTGAA (site GTGGAAGCTTT)  recombinant UMI read abundance (log10)            2.55
 3  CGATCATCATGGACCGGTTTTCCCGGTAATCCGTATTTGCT (site CAATGATCTAG)  recombinant UMI read abundance (log10)               0
 4  GGCACGTCATGGACCGGTTTTCCCGGTAATCCGTATTTGTT (site GGTACGTCTAA)  recombinant UMI read abundance (log10)          0.0192
 5  ATGTAGGCATGGACCGGTTTTCCCGGTAATCCGTATTTGGA (site ATGTAGGCTGC)  recombinant UMI read abundance (log10)            1.58
 6  ACCTAGACATGGACCGGTTTTCCCGGTAATCCGTATTTGTG (site ACCTAGACTCG)  recombinant UMI read abundance (log10)           0.469
 7  AGGTTCACATGGACCGGTTTTCCCGGTAATCCGTATTTGTG (site AGGTTCCCTCA)  recombinant UMI read abundance (log10)               0
 8  CACTTGACATGGACCGGTTTTCCCGGTAATCCGTATTTGCT (site GACTTGACTAG)  recombinant UMI read abundance (log10)               0
 9  TGGCCGACATGGACCGGTTTTCCCGGTAATCCGTATTTGGC (site TGGCCGCCTGC)  recombinant UMI read abundance (log10)               0
10  AGCTCCCCATGGACCGGTTTTCCCGGTAATCCGTATTTGGG (site AGCTCCCCTCC)  recombinant UMI read abundance (log10)           0.111
11  GACCTAGCATGGACCGGTTTTCCCGGTAATCCGTATTTGAA (site GACCTAGCTTT)  recombinant UMI read abundance (log10)           0.349
12  GCCCACCCATGGACCGGTTTTCCCGGTAATCCGTATTTGTT (site GCCCACCCTAA)  recombinant UMI read abundance (log10)           0.051
13  CCAGTTGCATGGACCGGTTTTCCCGGTAATCCGTATTTGAT (site CCAGGTGCTAT)  recombinant UMI read abundance (log10)         0.00995

---

Assay: recombinant UMI read abundance after kanamycin selection (control-corrected) (log10(CPM+1)); higher = more efficient recombination; extreme values may be limits of the assay; sequences stand for … in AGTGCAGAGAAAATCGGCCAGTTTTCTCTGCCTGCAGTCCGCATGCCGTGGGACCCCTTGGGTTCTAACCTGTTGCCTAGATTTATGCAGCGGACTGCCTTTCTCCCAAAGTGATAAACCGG…AGGTTGGTTTCACT; site = the 11-nt donor
Below: a set of entries, each annotated with reported recombinant UMI read abundance (log10).
Measured Endpoint: recombinant UMI read abundance (log10)

In [3]: df
Out[3]:
                              sequence_text  readout_number
0  GATCATCCATGGACCGGTTTTCCCGGTAATCCGTATTTGCT (site GATAATCCTAG)               0
1  GTTCGAGCATGGACCGGTTTTCCCGGTAATCCGTATTTGAA (site GTTCGAGCTTC)               0
2  AACCAAACATGGACCGGTTTTCCCGGTAATCCGTATTTGAG (site AACCAAACTCT)            1.48

---

Assay: recombinant UMI read abundance after kanamycin selection (control-corrected) (log10(CPM+1)); higher = more efficient recombination; extreme values may be limits of the assay; sequences stand for … in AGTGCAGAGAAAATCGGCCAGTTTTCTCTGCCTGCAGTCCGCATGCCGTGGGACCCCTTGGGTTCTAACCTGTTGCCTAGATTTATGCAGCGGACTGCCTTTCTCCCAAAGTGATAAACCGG…AGGTTGGTTTCACT; site = the 11-nt donor
Below: a set of entries, each annotated with reported recombinant UMI read abundance (log10).
Measured Endpoint: recombinant UMI read abundance (log10)

>>> print(df.to_string())
                              sequence_text  readout_number
0  TGGAAAACATGGACCGGTTTTCCCGGTAATCCGTATTTGCA (site AGGAAGACTTG)           0.218
1  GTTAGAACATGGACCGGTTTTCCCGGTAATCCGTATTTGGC (site GTTAGAACTCC)          0.0522
2  GGATAGACATGGACCGGTTTTCCCGGTAATCCGTATTTGCG (site GGATAGACTTG)            2.13
3  ACAACTACATGGACCGGTTTTCCCGGTAATCCGTATTTGTG (site ACATCTACTCA)           0.146
4  CCAGTTGCATGGACCGGTTTTCCCGGTAATCCGTATTTGAT (site CCAGTTGCTAT)            1.42
5  ATTGAGACATGGACCGGTTTTCCCGGTAATCCGTATTTGTT (site ATTGAGACTAA)            1.71
6  GATACGTCATGGACCGGTTTTCCCGGTAATCCGTATTTGTT (site GCTACGTCTAA)         0.00442
7  TTCTAGTCATGGACCGGTTTTCCCGGTAATCCGTATTTGAC (site TTCTAGTCTGT)               0
8  AACCGTCCATGGACCGGTTTTCCCGGTAATCCGTATTTGAC (site AACCGTCCTAT)               0
